test: Preliminary PK profile in dogs; assay type: in vivo, dog; conditions: dog, in vivo; dogs, preliminary; read-out: Vss
MEASUREMENT_TYPE: Vd

Looking for the measured Vd of CC(C)(CC(=O)O)NC(=O)c1nc(C#N)c2cc(Oc3ccccc3)ccc2c1O , can you help?
0.249 L/kg

----------
assay: Tissue distribution in mice; format: in vivo, mouse; details: male, Swiss Webster, mouse; Kidney, 8 h post dose; mice, single iv 60 mg/kg; read-out: Tissue/plasma ratio
MEASUREMENT_TYPE: Kp at 8 h
Give bare numbers.

Which Kp at 8 h is reported for this compound? CC(C)(CC(=O)O)NC(=O)c1nc(C#N)c2cc(Oc3ccccc3)ccc2c1O [Formula I]
0.17
